- Tested on: U-251
- Protocol Summary: NCI tumour cell line growth inhibition, 48 h
Calls of active or inactive are those of the source. Cut-off read from the data, not from the text of the source: active = GI50 up to about 1.1 µM and inactive = higher.
Measured Attribute: GI50

• CC(C)(C)c1cc(C(P(=O)(O)O)P(=O)(O)O)cc(C(C)(C)C)c1O = > 100 µM (inactive)
• c1csc(-c2cc(-c3cccs3)c(-c3cccs3)s2)c1 = 75.5 µM (inactive)
• CCOC(=O)CCc1c(C(=O)OCC)[nH]c(/C=C2/NC(=O)C(C)=C2CC)c1C = 11.2 µM (inactive)
• COc1cc(NCc2ccc3oc(=O)c(-c4ccccc4)nc3c2)cc(OC)c1OC = > 10 µM (inactive)
• COC(=O)C(/C(=N/N)C(=O)Nc1cc(Cl)ccc1Cl)c1nc2ccc([N+](=O)[O-])cc2nc1O (stereo not given) = > 100 µM (inactive)

Taken from ChEMBL document CHEMBL1201862.
